Observed IC50 values for porcine DPP-IV (Sus scrofa) are listed in what follows.
Residues, ends and D or L forms follow the SMILES beside them.
Give bare numbers, in µM.

| Molecule | Assay Target | Endpoint Unit | Assay Result |
| --- | --- | --- | --- |
| C[C@H](N)C(=O)N1CCC[C@H]1C(=O)N[C@@H](CCCNC(=N)N)C(=O)O [APR, Ala-Pro-Arg] (H-Ala-Pro-Arg-OH; N-terminus and C-terminus assumed) | porcine DPP-IV (Sus scrofa) | µM | 120 |
| C[C@H](NC(=O)[C@@H]1CCCN1C(=O)[C@@H](N)CCCCN)C(=O)O [KPA, Lys-Pro-Ala] (H-Lys-Pro-Ala-OH; N-terminus and C-terminus assumed) | porcine DPP-IV (Sus scrofa) | µM | 74.5 |

Lab note: next molecule to report on.
Fill in IC50 for record N[C@@H](Cc1ccccc1)C(=O)N1CCC[C@H]1C(=O)N[C@@H](Cc1c[nH]c2ccccc12)C(=O)O [FPW, Phe-Pro-Trp] (H-Phe-Pro-Trp-OH; N-terminus and C-terminus assumed)
54.9

----------
# Assay Target: porcine DPP-IV (Sus scrofa)
# Sequence (P22411 whole entry): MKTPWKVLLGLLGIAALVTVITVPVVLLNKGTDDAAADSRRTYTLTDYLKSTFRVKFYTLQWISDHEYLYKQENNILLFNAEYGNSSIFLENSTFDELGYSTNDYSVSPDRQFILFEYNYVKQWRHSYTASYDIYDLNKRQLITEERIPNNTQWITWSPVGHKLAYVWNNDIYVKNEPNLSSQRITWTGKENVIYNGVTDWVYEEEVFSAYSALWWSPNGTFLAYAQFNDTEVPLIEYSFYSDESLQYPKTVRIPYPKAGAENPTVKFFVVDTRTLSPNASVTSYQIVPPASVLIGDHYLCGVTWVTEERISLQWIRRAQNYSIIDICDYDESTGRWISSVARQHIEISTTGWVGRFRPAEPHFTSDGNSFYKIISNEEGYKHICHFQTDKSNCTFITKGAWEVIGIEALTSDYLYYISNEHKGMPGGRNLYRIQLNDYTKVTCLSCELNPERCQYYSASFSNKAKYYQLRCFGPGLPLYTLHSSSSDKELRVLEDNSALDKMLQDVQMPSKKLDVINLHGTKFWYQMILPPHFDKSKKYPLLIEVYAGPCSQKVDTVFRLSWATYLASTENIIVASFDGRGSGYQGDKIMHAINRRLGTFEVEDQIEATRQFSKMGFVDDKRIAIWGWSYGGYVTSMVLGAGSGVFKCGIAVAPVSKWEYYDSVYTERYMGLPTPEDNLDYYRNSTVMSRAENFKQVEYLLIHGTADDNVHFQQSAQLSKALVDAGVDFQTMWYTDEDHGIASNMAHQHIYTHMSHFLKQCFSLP
# Experimental Details: Stability of peptides to hydrolysis by DPP-IV (LC-MS/MS)
# Test Settings: 30 min incubation with DPP-IV
Residues, ends and D or L forms follow the SMILES beside them.
Readout Label: Hydrolysis by DPP-IV (stability), in words

| Compound | Assay Result |
| --- | --- |
| C[C@H](N)C(=O)N1CCC[C@H]1C(=O)N[C@@H](CCCNC(=N)N)C(=O)O [APR, Ala-Pro-Arg] (H-Ala-Pro-Arg-OH; N-terminus and C-terminus assumed) | not hydrolyzed by DPP-IV |
| CC[C@H](C)[C@H](N)C(=O)N1CCC[C@H]1C(=O)N[C@@H](C)C(=O)O [IPA, Ile-Pro-Ala] (H-Ile-Pro-Ala-OH; N-terminus and C-terminus assumed) | not hydrolyzed by DPP-IV |
